Sourced from patent US20080039513A1

System: human neuroblastoma cell line SH-SY5Y
Assay type: cell-based
Settings: SH-SY5Y, 24 hours exposure, LDH
Can you tell me Toxicity for the items I'm about to list?

Record request: Toxicity value, item COC1=C(Br)[C@H](O)[C@](O)(CC#N)C=C1Br 6 µM

Record request: Toxicity value, item COC1=C(Br)[C@@H]2OC(=O)C[C@]2(O)C=C1Br 0.6 µM

Record request: Toxicity value, item COC1=C(Br)[C@H](O)[C@@]2(C=C1Br)CC(C(=O)NCCCCCNC(=O)C1=NO[C@]3(C=C(Br)C(OC)=C(Br)[C@@H]3O)C1)=NO2 6 µM

Record request: Toxicity value, item COC1=C(Br)[C@@H](O)[C@]2(C=C1Br)CC(C(=O)NCCc1cc(Br)c(OCCCNC(=O)C3=NO[C@]4(C=C(Br)C(OC)=C(Br)[C@@H]4O)C3)c(Br)c1)=NO2 >100 µM
